System: Meth A tumor-bearing mice
Experiment: Antitumor activity, Meth A tumor-bearing mice, single administration on day 7
Type: in vivo, mouse
Conditions: single administration; compared to the drug compound, per se
* marks the point of attachment. Exatecan = CC[C@@]1(O)C(=O)OCc2c1cc1n(c2=O)Cc2c-1nc1cc(F)c(C)c3c1c2[C@@H](N*)CC3
quantity: antitumor activity (in words)

[[record]]
substance = "Carboxymethyldextran Polyalcohol-Gly-Gly-Gly-Phe-NH--A' (A--NH2 =DX-8951) [Example 29] ({carboxymethyldextran polyalcohol}-GGGF-Exatecan; also: N-terminus linked to carboxymethyldextran polyalcohol, C-terminus amide-linked to drug residue A' (DX-8951))"
valuereported = "high antitumor activity"

[[record]]
substance = "Carboxymethyldextran Polyalcohol-Gly-Gly-Gly-Phe-NH--A' (A--NH2 =)X-8951) ({carboxymethyldextran polyalcohol}-GGGF-Exatecan; also: N-terminus linked to carboxymethyldextran polyalcohol, C-terminus amide-linked to drug residue A' (DX-8951)) [Example 43]"
valuereported = "high antitumor activity"

[[record]]
substance = "α-methylcarboxymethyldextran Polyalcohol-Gly-Gly-Gly-Phe-NH--A' (A--NH2 =DX-8951) [Example 44]"
valuereported = "high antitumor activity"

